Measured PBM binding z-score, listed per entry.
Test system: LXRa:RXRa (NR concentration 270 nM, RXRa partner concentration 90 nM)
test: PBM binding z-score (relative to random genomic background probes); higher = stronger binding; sequences stand for … in GC…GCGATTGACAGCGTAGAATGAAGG
Please respond with just the number, no unit label.

Take a look at these entries with their results.
{"sequence_text": "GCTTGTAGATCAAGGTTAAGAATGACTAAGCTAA", "PBM binding z-score": 0.324}
{"sequence_text": "CCTAGTTGGTGAGGAGGTCACACACCGGATATGA", "PBM binding z-score": 3.07}

Exercise: State the recorded PBM binding z-score for this entry: CCTACAGGGCCATTCAGAGGTCATTGATCATATG
Key: 4.65

Exercise: State the recorded PBM binding z-score for this entry: AGTCAAAGTTCATATAGGTAACGTAAGATATGCT
Key: 5.7

Exercise: State the recorded PBM binding z-score for this entry: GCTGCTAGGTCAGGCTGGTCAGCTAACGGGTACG
Key: 0.306

Exercise: State the recorded PBM binding z-score for this entry: GCTGCTAAGTCAGGTTGGTCAGCTAACGGGTACG
Key: -0.657

Exercise: State the recorded PBM binding z-score for this entry: GAAACGAGGGCAAAGTTGATAGCATCTGTCGACG
Key: 1.27

----------
System: THRa:RXRa (NR concentration 90 nM, RXRa partner concentration 90 nM)
test: PBM binding z-score (relative to random genomic background probes); higher = stronger binding; sequences stand for … in GC…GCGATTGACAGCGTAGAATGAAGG
Each record's PBM binding z-score is compared with LOW = under 1, MEDIUM = from 1 up to 3, HIGH = 3 and over to give its class.

Exercise: Form: Item = TAGCCTAAGTCATTGGGCCAGTATAGTACGCATC ; Class = ?
Key: LOW

Exercise: Form: Item = ACTATTAGTTGAATTAGGGCAACCGATACGACGC ; Class = ?
Key: MEDIUM

----------
Measured PBM binding z-score, listed per entry.
System: PXR homodimer (NR concentration 270 nM)
test: PBM binding z-score (relative to random genomic background probes); higher = stronger binding; sequences stand for … in GC…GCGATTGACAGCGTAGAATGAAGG
Please respond with just the number, no unit label.

Exercise: State the recorded PBM binding z-score for this entry: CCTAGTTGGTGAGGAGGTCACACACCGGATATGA
Key: 1.61

Exercise: State the recorded PBM binding z-score for this entry: GTACCAAGGTGAATAGTTCGTTGATGAGTAGGCG
Key: 0.918

----------
Tested on: VDR homodimer (NR concentration 270 nM)
test: PBM binding z-score (relative to random genomic background probes); higher = stronger binding; sequences stand for … in GC…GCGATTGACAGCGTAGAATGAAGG
Measured PBM binding z-score, listed per entry.
Please respond with just the number, no unit label.

Take a look at these entries with their results.
{"sequence_text": "ACTAGATGGTCAGCTGAGGTCACACACAATTCGG", "PBM binding z-score": 3.61}
{"sequence_text": "CGTCCAAGGTCAGCAGGTCAATGAAAGCGACGTG", "PBM binding z-score": 2.23}
{"sequence_text": "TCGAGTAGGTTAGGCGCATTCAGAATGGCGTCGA", "PBM binding z-score": -0.809}
{"sequence_text": "CGAACGAGGGCATGAGTTGCTAGCAAATGCCGAT", "PBM binding z-score": 1.05}
{"sequence_text": "TCATATAGGTAAAAGTGAAAGTCGAACGATATGA", "PBM binding z-score": -0.103}

Exercise: State the recorded PBM binding z-score for this entry: TTACCAAGGTGAAGGTCGTCGATCCCTCTGTAGA
Key: -0.137

Exercise: State the recorded PBM binding z-score for this entry: GCAACGAGGGCATTCGAGTTGATAGCATGGCGAT
Key: 3.27

Exercise: State the recorded PBM binding z-score for this entry: TCTTGTAGATCAATAGAGGTTAATAAAGTGCGCT
Key: 0.459

Exercise: State the recorded PBM binding z-score for this entry: TCATATAGGTAAATGCTCGGTGAAAGTCCGATCT
Key: 0.375

Exercise: State the recorded PBM binding z-score for this entry: ACTAGTTGGTCAGCTGAGGTCACAAACAATTCGG
Key: 3.58

----------
System: PXR homodimer (NR concentration 270 nM)
test: PBM binding z-score (relative to random genomic background probes); higher = stronger binding; sequences stand for … in GC…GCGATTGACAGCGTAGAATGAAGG
Measured PBM binding z-score, listed per entry.

Take a look at these entries with their results.
{"sequence_text": "CTCGAAAGGTCGTGCTCAGGTGAATATACCAAAC", "assayed_target": "PXR homodimer (NR concentration 270 nM)", "observed_property": "PBM binding z-score", "measured_value": 0.506}
{"sequence_text": "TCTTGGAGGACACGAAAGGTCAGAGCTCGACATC", "assayed_target": "PXR homodimer (NR concentration 270 nM)", "observed_property": "PBM binding z-score", "measured_value": 0.329}

Query sequence follows.
Exercise: API: value(readout= PBM binding z-score, system= PXR homodimer (NR concentration 270 nM), query= GGAACGACGGCATTCGAGTTGATAGCATGGCGAT )
Key: -0.529

----------
System: THRa homodimer (NR concentration 90 nM)
test: PBM binding z-score (relative to random genomic background probes); higher = stronger binding; sequences stand for … in GC…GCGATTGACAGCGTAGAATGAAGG
observed_property: PBM binding z-score
Please respond with just the number, no unit label.

Take a look at these entries with their results.
{"sequence_text": "CATACAGGGTCAGCTTGGCCAGAGTAGGGACGGC", "measured_value": 0.515}
{"sequence_text": "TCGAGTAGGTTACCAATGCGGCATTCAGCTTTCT", "measured_value": -0.859}
{"sequence_text": "AGTCAAAGTTCAGGACGAGGTGACGTAAAGCACG", "measured_value": 1.83}

Exercise: State the recorded PBM binding z-score for this entry: ATCTCTAGGTAAGACTCAGTTCATTGAAGAACGC
Key: 0.923

Exercise: State the recorded PBM binding z-score for this entry: ATCGAAAGGCCGAAGGTGAGTATACCCACCCGAA
Key: -0.66

Exercise: State the recorded PBM binding z-score for this entry: CCTAGCAGGCCAATCTGGGTCACTGAAGGCTTGA
Key: 0.399

Exercise: State the recorded PBM binding z-score for this entry: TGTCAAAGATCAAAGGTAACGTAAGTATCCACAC
Key: -0.401

Exercise: State the recorded PBM binding z-score for this entry: CCTCGGAGGACAACACGAGGTCAGAGCTGCCAGA
Key: 2.8

Exercise: State the recorded PBM binding z-score for this entry: ACTCGGAGGACATAGGTCAGAGCTACGCCAGTGA
Key: 0.0623

Exercise: State the recorded PBM binding z-score for this entry: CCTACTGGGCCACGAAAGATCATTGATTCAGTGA
Key: -0.393

Exercise: State the recorded PBM binding z-score for this entry: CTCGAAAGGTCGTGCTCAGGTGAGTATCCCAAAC
Key: 1.22

Exercise: State the recorded PBM binding z-score for this entry: TCTTGTAGATCAAGCAGGTTACGAAAGCCTGAGT
Key: -0.421

Exercise: State the recorded PBM binding z-score for this entry: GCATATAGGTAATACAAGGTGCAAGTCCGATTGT
Key: -0.516

----------
Tested on: RXRa DBDmut IVT, anti-RXR (DBD mutation: RXRa K156A/R161A, NR concentration 90 nM)
test: PBM binding z-score (relative to random genomic background probes); higher = stronger binding; sequences stand for … in GC…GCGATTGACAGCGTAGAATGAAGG
Measured PBM binding z-score, listed per entry.
Please respond with just the number, no unit label.

Exercise: State the recorded PBM binding z-score for this entry: CGTCCAAGGTAAAAGGTCAGTGAAGAGATGACGG
Key: 0.584

Exercise: State the recorded PBM binding z-score for this entry: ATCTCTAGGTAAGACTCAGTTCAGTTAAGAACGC
Key: 0.735

Exercise: State the recorded PBM binding z-score for this entry: CCTACTGGGCCATCAGGTTATTGATATCAACGTT
Key: -0.157

Exercise: State the recorded PBM binding z-score for this entry: ACTCGGAGGACGAAGGTCAGAGCTACGCCAGTGA
Key: 0.315

----------
Measured PBM binding z-score, listed per entry.
Test system: RARg homodimer (NR concentration 270 nM)
test: PBM binding z-score (relative to random genomic background probes); higher = stronger binding; sequences stand for … in GC…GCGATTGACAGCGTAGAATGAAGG
Please respond with just the number, no unit label.

Take a look at these entries with their results.
{"sequence_text": "ATCTCTAGGTTACCAAGTTCAGTGAATGCCGAAC", "assayed_target": "RARg homodimer (NR concentration 270 nM)", "PBM binding z-score": 1.79}
{"sequence_text": "ATCTCTAGGTAAACTTCAGTGAAAGATCGATAGA", "assayed_target": "RARg homodimer (NR concentration 270 nM)", "PBM binding z-score": 0.513}
{"sequence_text": "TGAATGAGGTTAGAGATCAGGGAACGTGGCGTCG", "assayed_target": "RARg homodimer (NR concentration 270 nM)", "PBM binding z-score": 0.944}
{"sequence_text": "TCTTGTAGATCATGCAGGTTAAGAAAGCCTGAGT", "assayed_target": "RARg homodimer (NR concentration 270 nM)", "PBM binding z-score": 0.0949}
{"sequence_text": "GCTGCTAGCTCAGGTTGGTCAGCTAACGGGTACG", "assayed_target": "RARg homodimer (NR concentration 270 nM)", "PBM binding z-score": -0.751}
{"sequence_text": "CCTACTGGGCCACGAAAGGTCATTGACTCAGTGA", "assayed_target": "RARg homodimer (NR concentration 270 nM)", "PBM binding z-score": 4.53}
{"sequence_text": "ATATGTAGGTTACATCCGGGTCATTTAGGCTATG", "assayed_target": "RARg homodimer (NR concentration 270 nM)", "PBM binding z-score": 1.81}
{"sequence_text": "TCATATAGGTAAAGTTGAAAGTCGAACGATATGA", "assayed_target": "RARg homodimer (NR concentration 270 nM)", "PBM binding z-score": 0.882}
{"sequence_text": "GGTAGTTGGTCAGTAAAAGGTCACACACCGGTCG", "assayed_target": "RARg homodimer (NR concentration 270 nM)", "PBM binding z-score": 4.84}
{"sequence_text": "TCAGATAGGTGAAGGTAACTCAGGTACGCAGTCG", "assayed_target": "RARg homodimer (NR concentration 270 nM)", "PBM binding z-score": 0.814}

Query sequence follows.
Exercise: State the recorded PBM binding z-score for this entry: ATCGAAAGGTCGTGAGGTGATTATACAGAAAGGC
Key: 3.99
